Hi there, I'd appreciate the recorded CC50 at 48 h for every entry that follows.
# procedure details: Cytotoxicity against MDCK cells assessed as reduction in cell viability incubated for 48 hrs by MTT assay
# Format: toxicity, cell-based, Canis lupus familiaris
# condition details: dog
# unit: µM | format: bare number

Query: For the compound `CN(Cc1ccccc1)C(=O)[C@@H]1Cc2cc(O)c(O)cc2[C@H](Cc2ccc(O)c(O)c2)N1C=O` , give its reported CC50 at 48 h.
Response: 91.9

Query: Tell me measured CC50 at 48 h for `CCCOC(=O)[C@@H]1Cc2cc(O)c(O)cc2[C@H](Cc2ccc(O)c(O)c2)N1C=O` please.
Response: 75.1

Query: In one line, give reported CC50 at 48 h of the entry `O=CN1[C@H](C(=O)Oc2cccc(F)c2)Cc2cc(O)c(O)cc2[C@@H]1Cc1ccc(O)c(O)c1` .
Response: 55.6

Query: Indicate its recorded CC50 at 48 h; the compound in question is `O=CN1[C@H](C(=O)Oc2ccccc2F)Cc2cc(O)c(O)cc2[C@@H]1Cc1ccc(O)c(O)c1`
Response: 61.2

Query: Return CC50 at 48 h (reported value) for this compound: `COC(=O)[C@@H]1Cc2cc(O)c(O)cc2[C@H](Cc2ccc(O)c(O)c2)N1C(=O)C(F)(F)F`
Response: 76.4

Query: Name the recorded CC50 at 48 h of the item `O=CN1[C@H](C(=O)Oc2ccccc2)Cc2cc(O)c(O)cc2[C@@H]1Cc1ccc(O)c(O)c1` in your answer.
Response: 77.7

Query: Using known records, supply CC50 at 48 h for `O=CN1[C@H](C(=O)Oc2ccccc2Br)Cc2cc(O)c(O)cc2[C@@H]1Cc1ccc(O)c(O)c1`
Response: 57.1

Query: Give a short answer stating reported CC50 at 48 h for `O=CN1[C@H](C(=O)Oc2ccc(Br)cc2)Cc2cc(O)c(O)cc2[C@@H]1Cc1ccc(O)c(O)c1` .
Response: 32.1

----------
# procedure details: Selectivity index, ratio of CC50 for cytotoxicity against MDCK cells to EC50 for antiviral activity against Influenza A virus A/WSN/33(H1N1) infected in MDCK cells
# Assay type: toxicity, cell-based
# condition details: dog, read-out: Ratio CC50/EC50
measured metric: selectivity ratio

Query: Given the compound CCC(CC)[C@H](NC(C)=O)[C@@H]1[C@H](O)[C@@H](C(=O)O)C[C@H]1NC(=N)N [PERAMIVIR ANHYDROUS] , write its reported selectivity ratio.
Response: > 19

Query: Find the measured selectivity ratio of `COC(=O)[C@@H]1Cc2cc(O)c(O)cc2[C@H](Cc2ccc(O)c(O)c2)N1C=O` and report it.
Response: > 14.2

Query: State, in one line, measured selectivity ratio of `COC(=O)[C@@H]1Cc2cc(O)c(O)cc2[C@H](Cc2ccc(O)c(O)c2)N1C(C)=O`
Response: > 13.1

Query: Please list selectivity ratio recorded for the compound `CCOC(=O)[C@@H]1Cc2cc(O)c(O)cc2[C@H](Cc2ccc(O)c(O)c2)N1C=O`
Response: > 14.5

Query: Please indicate selectivity ratio recorded for `O=CN1[C@H](C(=O)Nc2ccc(Cl)cc2)Cc2cc(O)c(O)cc2[C@@H]1Cc1ccc(O)c(O)c1`
Response: > 12.7

Query: Supply recorded selectivity ratio for `O=CN1[C@H](C(=O)Oc2ccccc2Cl)Cc2cc(O)c(O)cc2[C@@H]1Cc1ccc(O)c(O)c1` here.
Response: > 22.2
